# ASSAYED_SYSTEM: hDP/Gqs5 (Homo sapiens, UniProt Q13258)
# Construct: expressed in transfected cells; host or cells: HEK-293(EBNA)
# Sequence (Q13258 whole entry): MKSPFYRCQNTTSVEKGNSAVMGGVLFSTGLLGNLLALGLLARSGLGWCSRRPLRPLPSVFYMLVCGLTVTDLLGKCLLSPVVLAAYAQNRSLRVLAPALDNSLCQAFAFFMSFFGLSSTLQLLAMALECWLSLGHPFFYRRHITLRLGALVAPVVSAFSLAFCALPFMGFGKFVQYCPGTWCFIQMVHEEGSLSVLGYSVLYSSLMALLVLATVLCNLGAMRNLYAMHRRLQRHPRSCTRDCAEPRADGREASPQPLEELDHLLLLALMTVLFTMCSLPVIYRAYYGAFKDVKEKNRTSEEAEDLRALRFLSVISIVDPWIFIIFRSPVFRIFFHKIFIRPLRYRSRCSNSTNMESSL
# EXPERIMENT: FLIPR calcium signal, hDP
# Assay type: cell-based
# RECORDED_CONDITIONS: HEK-293(EBNA) cells; read-out: Other Receptors (EC50 in nM) hDP
OBSERVABLE: EC50

**Query** Give the measured EC50 of CCCCCC(O)c1ccc(N2C(=O)OC[C@@H]2COCc2ccc(C(=O)O)s2)cc1 (stereo partly shown) .
**Result** > 10000 nM

###

# ASSAYED_SYSTEM: hEP2/Gqs5 (Homo sapiens)
# EXPERIMENT: EP2 FLIPR calcium signal
# RECORDED_CONDITIONS: HEK-293(EBNA) cells
# Procedure: HEK-293(EBNA) cells, stably expressing one type or subtype of recombinant human prostaglandin receptors (prostaglandin receptors expressed: hDP/Gqs5; hEP1; hEP2/Gqs5; hEP3A/Gqi5; hEP4/Gqs5; hFP; hIP; hTP), are cultured in 100 mm culture dishes in high-glucose DMEM medium containing 10% fetal bovine serum, 2 mM I-glutamine, 250 μg/ml geneticin (G418) and 200 μg/ml hygromycin B as selection markers, and 100 units/ml penicillin G, 100 μg/ml streptomycin and 0.25 μg/ml amphotericin B. […]
OBSERVABLE: EC50 (nM)
Please reply with the bare figure in nM and do not write the unit itself.

**Query** Give the measured EC50 of CCCCCC(O)c1ccc(N2C(=O)OC[C@@H]2COCc2ccc(C(=O)O)s2)cc1 (stereo partly shown) .
**Result** 817

###

Below are compounds with their pKi as measured on EP2 (Homo sapiens).
Sequence (P43116 whole entry): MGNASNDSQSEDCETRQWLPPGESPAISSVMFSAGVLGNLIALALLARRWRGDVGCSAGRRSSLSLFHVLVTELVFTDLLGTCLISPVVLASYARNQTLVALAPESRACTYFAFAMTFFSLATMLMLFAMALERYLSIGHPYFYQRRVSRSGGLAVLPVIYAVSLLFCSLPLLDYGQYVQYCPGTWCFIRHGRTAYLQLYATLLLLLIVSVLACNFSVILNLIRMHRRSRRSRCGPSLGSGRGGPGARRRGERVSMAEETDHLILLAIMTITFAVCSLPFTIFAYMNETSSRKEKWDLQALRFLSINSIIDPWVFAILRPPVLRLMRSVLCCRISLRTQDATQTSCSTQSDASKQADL
Schema: pKi number; meaning minus log10 of the concentration expressed in molar units.

COMPOUND: CCCCCC(F)c1ccc(N2C(=O)OC[C@@H]2COCc2ccc(C(=O)O)s2)cc1 (some centres unmarked)
pKi: 5.98

**Query** Give the measured pKi of CCCCCC(O)c1ccc(N2C(=O)OC[C@@H]2COCc2ccc(C(=O)O)s2)cc1 (some centres unmarked) .
**Result** 5.57

###

# ASSAYED_SYSTEM: hEP3A/Gqi5 (Homo sapiens, UniProt P43115)
# Construct: expressed in transfected cells; host or cells: HEK-293(EBNA)
# Sequence (P43115 1-390): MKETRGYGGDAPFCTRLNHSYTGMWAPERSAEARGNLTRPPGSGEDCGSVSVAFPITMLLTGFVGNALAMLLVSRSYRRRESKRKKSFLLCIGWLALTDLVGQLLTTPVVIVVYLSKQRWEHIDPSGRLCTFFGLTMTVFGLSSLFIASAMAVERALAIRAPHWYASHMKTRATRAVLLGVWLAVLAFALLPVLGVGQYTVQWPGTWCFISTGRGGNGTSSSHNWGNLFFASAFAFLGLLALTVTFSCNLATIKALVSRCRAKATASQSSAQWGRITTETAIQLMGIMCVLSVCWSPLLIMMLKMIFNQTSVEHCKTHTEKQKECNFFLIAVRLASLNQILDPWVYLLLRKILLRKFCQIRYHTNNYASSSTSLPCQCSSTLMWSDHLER
# EXPERIMENT: FLIPR calcium signal, hEP3A
# Assay type: cell-based
# RECORDED_CONDITIONS: HEK-293(EBNA) cells; read-out: Other Receptors (EC50 in nM) hEP3A
OBSERVABLE: EC50 (nM)
Please reply with the bare figure in nM and do not write the unit itself.

**Query** Provide value of EC50 for this record tested with hEP3A/Gqi5 (Homo sapiens, UniProt P43115): CCCCCC(O)c1ccc(N2C(=O)OC[C@@H]2COCc2ccc(C(=O)O)s2)cc1 (stereo partly shown)
**Result** 995
